molecular target: T1, Soluble recombinant human urokinase receptor (suPAR) (human, UniProt Q03405 23-299, limits assumed, biotinylated in the plate assays (sites not given)); assay: competition with phage displaying peptide 25 for soluble uPAR
T1 construct: Only called a soluble truncated form of the urokinase receptor; also called soluble uPAR; biotinylated suPAR
T1 sequence (Q03405 23-299 limits assumed): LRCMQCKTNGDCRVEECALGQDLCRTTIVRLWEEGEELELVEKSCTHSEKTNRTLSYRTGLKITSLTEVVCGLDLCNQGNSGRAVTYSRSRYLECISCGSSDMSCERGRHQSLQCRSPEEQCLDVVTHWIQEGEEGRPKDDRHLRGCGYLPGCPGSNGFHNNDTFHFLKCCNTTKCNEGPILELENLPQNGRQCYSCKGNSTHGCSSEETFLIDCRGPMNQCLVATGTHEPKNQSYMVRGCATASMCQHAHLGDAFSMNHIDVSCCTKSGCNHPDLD
Square brackets hold non-standard residues; d marks the D form. Ends that are not written are not given here. 2Nal = N[C@@H](Cc1ccc2ccccc2c1)C(=O)O; Nle = CCCC[C@H](N)C(=O)O
Each entry below lists one item and its recorded % Inhibition at 5 uM value.
Recorded endpoint: % Inhibition at 5 uM (%)

| Binder | Value units | Recorded result |
| --- | --- | --- |
| AEST[2Nal]HHLSLGYMYTLN-NH2 (N-terminus assumed; SMILES CSCC[C@H](NC(=O)[C@H](Cc1ccc(O)cc1)NC(=O)CNC(=O)[C@H](CC(C)C)NC(=O)[C@H](CO)NC(=O)[C@H](CC(C)C)NC(=O)[C@H](Cc1c[nH]cn1)NC(=O)[C@H](Cc1c[nH]cn1)NC(=O)[C@H](Cc1ccc2ccccc2c1)NC(=O)[C@@H](NC(=O)[C@H](CO)NC(=O)[C@H](CCC(=O)O)NC(=O)[C@H](C)N)[C@@H](C)O)C(=O)N[C@@H](Cc1ccc(O)cc1)C(=O)N[C@H](C(=O)N[C@@H](CC(C)C)C(=O)N[C@@H](CC(N)=O)C(N)=O)[C@@H](C)O) [Analog 36] | % | 78 |
| AESTFHHLSLGYMYTLN-NH2 [Analog 34] | % | 47 |
| AESTYHHLSLGY[Nle]YTLN-NH2 (N-terminus assumed; SMILES CCCC[C@H](NC(=O)[C@H](Cc1ccc(O)cc1)NC(=O)CNC(=O)[C@H](CC(C)C)NC(=O)[C@H](CO)NC(=O)[C@H](CC(C)C)NC(=O)[C@H](Cc1c[nH]cn1)NC(=O)[C@H](Cc1c[nH]cn1)NC(=O)[C@H](Cc1ccc(O)cc1)NC(=O)[C@@H](NC(=O)[C@H](CO)NC(=O)[C@H](CCC(=O)O)NC(=O)[C@H](C)N)[C@@H](C)O)C(=O)N[C@@H](Cc1ccc(O)cc1)C(=O)N[C@H](C(=O)N[C@@H](CC(C)C)C(=O)N[C@@H](CC(N)=O)C(N)=O)[C@@H](C)O) [Analog 44] | % | 91 |
| AESTYHHL[dS]LGYMYTLN-NH2 (N-terminus assumed; SMILES CSCC[C@H](NC(=O)[C@H](Cc1ccc(O)cc1)NC(=O)CNC(=O)[C@H](CC(C)C)NC(=O)[C@@H](CO)NC(=O)[C@H](CC(C)C)NC(=O)[C@H](Cc1c[nH]cn1)NC(=O)[C@H](Cc1c[nH]cn1)NC(=O)[C@H](Cc1ccc(O)cc1)NC(=O)[C@@H](NC(=O)[C@H](CO)NC(=O)[C@H](CCC(=O)O)NC(=O)[C@H](C)N)[C@@H](C)O)C(=O)N[C@@H](Cc1ccc(O)cc1)C(=O)N[C@H](C(=O)N[C@@H](CC(C)C)C(=O)N[C@@H](CC(N)=O)C(N)=O)[C@@H](C)O) [Analog 54] | % | 86 |
